measurement_description: Efflux ratio of apparent permeability across basolateral to apical over apical to basolateral side in MDCK-MDR1 cells
Format: ADME, cell-based, Canis lupus familiaris
condition_parameters: dog
measurement_kind: efflux ratio
Lab note: jot the number down without any unit.

So what does the record say about efflux ratio for `CCC#CC[C@H](C)[C@H](O)/C=C/[C@H]1CC(F)(F)C(=O)N1CCCCCCC(=O)O` ?
20
